assay: SUPPLEMENTARY: Lipophilicity (log D) Determination by high-throughput shake-flask; type: physicochemical; conditions: octanol/water
measured_attribute: logD

Check out these entries, answers already filled in.
COc1ccc(Cl)cc1S(=O)(=O)N1CCc2ccc(C(=O)Nc3ccc(C(=O)O)c(F)c3)cc21: 0.38
Cc1cccc(S(=O)(=O)N2CCOc3ccc(C(=O)Nc4nc(CC(=O)O)cs4)cc32)c1: 0.14
O=C(COc1ccncc1)N1CCCC[C@@H]1c1nnc(-c2cccc(C(F)(F)F)c2)[nH]1: 3.29
COc1ccc(Cl)cc1Sc1c[nH]c2ccc(C(=O)Nc3ccc(C(=O)O)cc3)cc12: 2.21
NC(=O)c1ccc(C#C[C@H]2CCCCN2C(=O)COc2ccccc2)cc1: 2.85

a = Nc1cncc(-c2nc([C@H]3CCCCN3C(=O)COc3ccccc3)no2)c1
b = COc1ccc(Cl)cc1CN1C(=O)OCc2ccc(C(=O)Nc3ccc(CC(=O)O)cc3)cc21
Returns: the argument ( a or b ) having the larger logD. The response must carry the label of the picked entry. a
(a: 2.39, b: 0.06)

----------
molecular target: Carnitine O-palmitoyltransferase 1, liver isoform (Rattus norvegicus); experiment: SUPPLEMENTARY: Inhibition of Carnitine palmitoyltransferase 1, liver isoform
Sequence (P32198 whole entry, canonical isoform): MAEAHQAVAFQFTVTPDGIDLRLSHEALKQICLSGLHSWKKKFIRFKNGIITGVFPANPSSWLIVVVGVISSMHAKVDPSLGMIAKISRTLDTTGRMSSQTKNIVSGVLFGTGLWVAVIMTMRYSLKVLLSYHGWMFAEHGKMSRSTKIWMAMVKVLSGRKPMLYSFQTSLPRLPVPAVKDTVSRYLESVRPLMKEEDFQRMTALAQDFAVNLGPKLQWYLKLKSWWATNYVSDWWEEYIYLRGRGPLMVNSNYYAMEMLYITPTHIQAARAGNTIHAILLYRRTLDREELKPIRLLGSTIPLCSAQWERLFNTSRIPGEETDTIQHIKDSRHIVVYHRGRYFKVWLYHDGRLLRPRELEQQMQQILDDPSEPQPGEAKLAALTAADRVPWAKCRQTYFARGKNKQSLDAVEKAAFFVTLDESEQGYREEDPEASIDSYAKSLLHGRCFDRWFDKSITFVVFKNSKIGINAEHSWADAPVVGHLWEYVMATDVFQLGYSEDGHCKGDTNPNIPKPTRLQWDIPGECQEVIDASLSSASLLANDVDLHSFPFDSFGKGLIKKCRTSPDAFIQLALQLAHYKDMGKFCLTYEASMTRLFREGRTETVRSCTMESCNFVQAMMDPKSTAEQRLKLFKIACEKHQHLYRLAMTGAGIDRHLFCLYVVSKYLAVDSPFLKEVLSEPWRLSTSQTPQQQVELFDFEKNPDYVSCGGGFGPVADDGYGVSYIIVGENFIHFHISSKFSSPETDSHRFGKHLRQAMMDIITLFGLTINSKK
measured_attribute: IC50 (µM)

O=C1Cc2ccc(-c3noc([C@H]4CCCCN4C(=O)COc4ccccc4)n3)cc2N1: 0.102
N#Cc1ccc(-c2nc([C@H]3CCCCN3C(=O)COc3ccccc3)no2)cc1: 0.143
O=C1CCCN1c1cccc(-c2nc([C@H]3CCCCN3C(=O)COc3ccccc3)no2)c1: 0.165
COc1ccc(Cl)cc1S(=O)(=O)N1CCS(=O)(=O)c2ccc(C(=O)Nc3ccc(C(=O)O)c(F)c3)cc21: 0.0613
COc1ccc(Cl)cc1S(=O)(=O)N1COc2c(F)cc(C(=O)Nc3ccc(C(=O)O)cc3)cc21: 0.0634

a = O=C(Nc1ccc(-c2nnn[nH]2)cc1)c1cccc(NS(=O)(=O)c2cccc(Cl)c2)c1
b = O=C(O)c1ccc(NC(=O)c2ccc3c(c2)N(S(=O)(=O)c2cccc(Cl)c2)CC[S+]3[O-])cc1 (centres undefined)
c = O=C(O)c1ccc(NC(=O)c2ccc(Cl)c(NS(=O)(=O)c3cc(Cl)cc(Cl)c3)c2)cc1
d = Cc1cc(C)cc(S(=O)(=O)N2CCOc3ccc(C(=O)Nc4nc(CC(=O)O)cs4)cc32)c1
Order the entries by their reported IC50, beginning at the minimum. Please list each label once, in the requested order. a, d, b, c
(a: 0.0218 µM, d: 0.0319 µM, b: 0.0955 µM, c: 0.139 µM)

----------
Biological target: Carnitine O-palmitoyltransferase 1, liver isoform (Homo sapiens, UniProt P50416)
Sequence (P50416 whole entry): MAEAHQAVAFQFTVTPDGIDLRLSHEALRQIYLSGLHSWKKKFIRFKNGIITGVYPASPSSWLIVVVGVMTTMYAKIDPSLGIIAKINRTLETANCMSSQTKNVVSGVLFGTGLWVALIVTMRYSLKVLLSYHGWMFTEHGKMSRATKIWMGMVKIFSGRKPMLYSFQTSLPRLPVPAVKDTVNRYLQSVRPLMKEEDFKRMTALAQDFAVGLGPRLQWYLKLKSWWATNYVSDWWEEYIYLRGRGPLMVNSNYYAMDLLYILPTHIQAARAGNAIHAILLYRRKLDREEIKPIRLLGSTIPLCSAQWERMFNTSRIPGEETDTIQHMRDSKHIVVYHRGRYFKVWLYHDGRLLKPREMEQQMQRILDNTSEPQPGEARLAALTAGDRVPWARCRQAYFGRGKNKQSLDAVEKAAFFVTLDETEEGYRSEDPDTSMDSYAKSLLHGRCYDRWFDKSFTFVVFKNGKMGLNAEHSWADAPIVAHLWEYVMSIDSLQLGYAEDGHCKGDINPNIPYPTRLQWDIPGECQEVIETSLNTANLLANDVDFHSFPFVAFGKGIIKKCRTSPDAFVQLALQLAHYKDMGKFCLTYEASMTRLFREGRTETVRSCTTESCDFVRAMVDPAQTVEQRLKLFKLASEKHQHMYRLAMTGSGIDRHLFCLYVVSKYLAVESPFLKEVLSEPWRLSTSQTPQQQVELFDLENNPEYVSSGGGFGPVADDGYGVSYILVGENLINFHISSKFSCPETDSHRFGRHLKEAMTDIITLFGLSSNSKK
Assay: SUPPLEMENTARY: Inhibition of Carnitine palmitoyltransferase 1, liver isoform
measured_attribute: IC50 (nM)

Solved cases (3 shown):
O=C(COc1ccccc1)N1CCCC[C@@H]1c1nnn(-c2ccccc2)n1: 156
O=C1CN(c2cccc(-c3noc([C@H]4CCCCN4C(=O)COc4ccccc4)n3)c2)C(=O)N1: 50.6
Cc1cc(-c2noc([C@H]3CCCCN3C(=O)COc3ccccc3)n2)no1: 137

a = COc1ccc(Cl)cc1S(=O)(=O)N1CCOc2c(Cl)cc(C(=O)Nc3ccn(CC(=O)O)n3)cc21
b = COc1ccc(Cl)cc1S(=O)(=O)c1c[nH]c2ccc(C(=O)Nc3ccc(CC(=O)O)cc3)cc12
Field: lower IC50 | Options: a / b Mark your selection by writing its label. b
(b: 21.9 nM, a: 218 nM)

----------
molecular target: Carnitine O-palmitoyltransferase 1, liver isoform (Rattus norvegicus); test: SUPPLEMENTARY: Inhibition of Carnitine palmitoyltransferase 1, liver isoform
pIC50: −log10 of the molar value.
measured_attribute: pIC50

COc1ccc(C)cc1S(=O)(=O)N1CCCc2ccc(C(=O)Nc3ccc(CC(=O)O)cc3)cc21: 6.73
COc1ccc(Cl)cc1Cn1ccc2ccc(C(=O)Nc3nc(CC(=O)O)cs3)cc21: 7.04
COc1ccc(Cl)cc1S(=O)(=O)N1CCOc2ccc(C(=O)Nc3ncc(CC(=O)O)s3)cc21: 7.41

A = O=C(COc1ccccc1)N1CCCC[C@@H]1c1nc(-c2ccc(O)cc2)cs1
B = COc1ccc(Cl)cc1S(=O)(=O)N1CCS(=O)(=O)c2ccc(C(=O)Nc3ccc(C(=O)O)c(Cl)c3)cc21
Which record shows the lower pIC50: the first, A , or the second, B ? I would appreciate it if you answered with the label of your choice. A
(A: 6.64, B: 6.99)

1 = O=C(COc1ccccc1)N1CCCC[C@@H]1c1nc(-c2ccccc2)cs1
2 = O=C(Nc1ccc(C(=O)O)c(F)c1)c1ccc2c(c1)N(S(=O)(=O)c1cc(Cl)cc(Cl)c1)CCC2
3 = COc1ccc(Cl)cc1S(=O)(=O)N1C[C@@H](C)c2ccc(C(=O)Nc3ccc(C(=O)O)cc3)cc21
4 = COc1ccc(Cl)cc1S(=O)(=O)c1nn(C)c2ccc(C(=O)Nc3ccc(C(=O)O)c(Cl)c3)cc12
5 = COc1ccc(Cl)cc1S(=O)(=O)N1CCOc2ccc(C(=O)Nc3ccc(C(=O)O)nc3)cc21
Please produce an ascending ranking of these compounds based on pIC50. Lab note: final answer is the ordered label list. 5, 1, 2, 3, 4
(5: 6.24, 1: 6.51, 2: 7.27, 3: 7.54, 4: 7.80)

I = O=C(COc1ccccc1)N1CCCC[C@@H]1c1csc(-c2cccnc2)n1
II = CC(=O)Nc1ccc(F)c(-c2n[nH]c([C@H]3CCCCN3C(=O)COc3ccccc3)n2)c1
III = Cc1nnsc1-c1noc([C@H]2CCCCN2C(=O)COc2ccccc2)n1
IV = COc1ccc(Cl)cc1S(=O)(=O)N1CCc2c(C)cc(C(=O)Nc3nc(CC(=O)O)cs3)cc21
Sequence the entries by pIC50, beginning with the highest number. Would you mind listing the labels in the order requested? IV, I, II, III
(IV: 7.92, I: 7.20, II: 6.51, III: 5.78)

I = CCOc1ccc2c(c1)CN(C(=O)[C@H]1CCCCN1C(=O)COc1ccccc1)C2
II = Nc1cncc(-c2nc([C@H]3CCCCN3C(=O)COc3ccccc3)no2)c1
III = COc1ccc(Cl)cc1S(=O)(=O)N1CCc2c(C)cc(C(=O)Nc3ccc(C(=O)O)c(F)c3)cc21
Could you please sort these 3 entries by pIC50 from high to low? To answer, write out the labels according to the requested order. III, I, II

----------
assay: SUPPLEMENTARY: PAMPA permeability assay; format: physicochemical; conditions: read-out: Permeability
measured_attribute: Papp (×10⁻⁶ cm/s)

Example molecules with recorded Papp:
COc1ccc(Cl)cc1S(=O)(=O)N1CC(C(=O)O)Oc2ccc(C(=O)Nc3ccccc3)cc21 (centres undefined): 0.03
COc1ccc(Cl)cc1S(=O)(=O)N1CCOc2c(Cl)cc(C(=O)Nc3ccn(CC(=O)O)n3)cc21: 0.03
COc1ccc(Cl)cc1Sc1cn(C)c2ccc(C(=O)Nc3ccc(C(=O)O)cc3)cc12: 0.53
COc1ccc(C)cc1S(=O)(=O)n1ccc2ccc(C(=O)Nc3ccc(C(=O)O)cc3)cc21: 1.23
COc1ccc(Cl)cc1S(=O)(=O)N(C)c1cc(C(=O)Nc2nc(CC(=O)O)cs2)cc2c1OCO2: 2.43
O=C(COc1ccccc1)N1CCCC[C@@H]1c1noc(-c2ccc3cnccc3n2)n1: 4.52

I = O=C(O)c1cccc(-c2csc([C@H]3CCCCN3C(=O)COc3ccccc3)n2)c1
II = COc1ccc(Cl)cc1S(=O)(=O)N1CC(C(=O)O)Cc2ccc(C(=O)Nc3ccccc3)cc21 (centres undefined)
Given the listed items, does I or II have the lesser reported Papp? Answer = label. II
(II: 1.83 ×10⁻⁶ cm/s, I: 5.06 ×10⁻⁶ cm/s)
